- MEASUREMENT NOTES: Commercial microsome stability assay (half-life analysis)
- Format: in vitro ADME
- TEST CONTEXT: mouse liver microsomes; read-out: half-life in mouse liver microsomes (MLM)
REPORTED METRIC: half-life (min)
Note: unit min is implicit; provide only the numeric part.

Task item: Please report the recorded half-life for `CCN1CCN(Cc2ccc(Nc3nc4ccc(Oc5ccnc(NC(C)=O)c5)c5c4n3CCC5)cc2C(F)(F)F)CC1` .
Reply: 16.7

###

Data export: pIC50 values recorded with JAK2 (Homo sapiens (Human)).
Sequence (O60674 whole entry): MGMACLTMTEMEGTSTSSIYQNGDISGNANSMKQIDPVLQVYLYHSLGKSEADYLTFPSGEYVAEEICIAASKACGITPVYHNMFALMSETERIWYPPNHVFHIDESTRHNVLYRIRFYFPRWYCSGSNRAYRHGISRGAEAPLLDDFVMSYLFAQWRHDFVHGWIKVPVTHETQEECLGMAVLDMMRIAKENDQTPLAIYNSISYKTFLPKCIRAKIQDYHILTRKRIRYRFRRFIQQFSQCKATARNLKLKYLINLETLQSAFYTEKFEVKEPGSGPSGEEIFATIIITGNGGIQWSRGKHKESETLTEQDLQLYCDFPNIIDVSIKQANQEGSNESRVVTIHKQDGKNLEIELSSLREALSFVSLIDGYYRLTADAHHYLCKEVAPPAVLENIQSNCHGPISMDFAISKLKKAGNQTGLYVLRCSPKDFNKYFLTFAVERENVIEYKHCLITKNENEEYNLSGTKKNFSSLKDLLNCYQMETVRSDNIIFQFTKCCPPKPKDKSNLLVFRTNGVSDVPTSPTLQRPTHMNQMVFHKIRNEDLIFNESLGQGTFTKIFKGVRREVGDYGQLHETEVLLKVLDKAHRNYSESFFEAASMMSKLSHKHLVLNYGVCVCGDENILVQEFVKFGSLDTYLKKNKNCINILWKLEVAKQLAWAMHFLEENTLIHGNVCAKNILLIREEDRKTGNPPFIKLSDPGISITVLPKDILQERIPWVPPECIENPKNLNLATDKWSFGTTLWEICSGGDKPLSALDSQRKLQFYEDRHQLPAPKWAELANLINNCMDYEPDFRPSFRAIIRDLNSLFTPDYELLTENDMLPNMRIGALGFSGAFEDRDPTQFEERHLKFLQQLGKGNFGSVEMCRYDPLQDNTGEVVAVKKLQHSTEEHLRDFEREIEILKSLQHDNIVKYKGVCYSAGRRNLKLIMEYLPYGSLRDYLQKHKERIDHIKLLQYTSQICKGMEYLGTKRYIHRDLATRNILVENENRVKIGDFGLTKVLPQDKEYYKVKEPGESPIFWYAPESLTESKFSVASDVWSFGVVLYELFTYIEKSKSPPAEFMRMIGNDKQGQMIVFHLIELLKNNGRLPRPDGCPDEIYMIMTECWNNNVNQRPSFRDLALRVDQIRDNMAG
pIC50 here is simply -log10 of the concentration when that concentration is written in mol/L.

Worked cases, answers included:
>  <STRUCTURE NOTATION>
CCN1CCN(Cc2cc(Nc3nc4ccc(Oc5ccnc(NC(C)=O)c5)c5c4n3CCC5)cc(C(F)(F)F)c2)CC1

>  <STUDY TARGET>
JAK2 (Homo sapiens (Human))

>  <REPORTED METRIC>
pIC50

>  <NUMERIC READOUT>
5.74

$$$$
>  <STRUCTURE NOTATION>
CC(=O)Nc1cc(Oc2ccc3nc(Nc4ccc(CN5CCN(C)CC5)cc4)n4c3c2CCC4)ccn1

>  <STUDY TARGET>
JAK2 (Homo sapiens (Human))

>  <REPORTED METRIC>
pIC50

>  <NUMERIC READOUT>
5.23

$$$$

Task item: Please report the recorded pIC50 for `CC(=O)Nc1cc(Oc2ccc3nc(Nc4cc(-n5cnc(C)c5)cc(C(F)(F)F)c4)n4c3c2CCC4)ccn1` .
Reply: 5.34
